# System: BALB/c mice
# test: Rescue from dexamethasone-induced spleen and thymus weight and cell loss in mice
# Format: in vivo, mouse
# test_context: relative to Normal mice = 100% (DEXA alone 44%); dexamethasone 100 μg IP; peptide 200 μg/mouse IV immediately and 24 hours after; sacrificed 48 hours
Where no end group is shown, it is not given here. [ ]: non-standard residue; d: D form. Aib = CC(C)(N)C(=O)O
measurement_kind: Thymus Weight (%)
Numeric answer only, unit % assumed.

Here is how some substances turned out for Thymus Weight.
substance	tested_on	Thymus Weight [%]
2 (LPPLPY[Aib]) [compound 2]	BALB/c mice	61
5 ([dL]PPH[Aib]Y-NH2; N-terminus assumed; SMILES CC(C)C[C@@H](N)C(=O)N1CCC[C@H]1C(=O)N1CCC[C@H]1C(=O)N[C@@H](Cc1c[nH]cn1)C(=O)NC(C)(C)C(=O)N[C@@H](Cc1ccc(O)cc1)C(N)=O) [compound 5]	BALB/c mice	52
11 ([dL]PPHPYP) [compound 11]	BALB/c mice	52

Here is another substance to look at.
Reported Thymus Weight of 37 (Ac-PPL[Aib]Y-NH2; SMILES CC(=O)N1CCC[C@H]1C(=O)N1CCC[C@H]1C(=O)N[C@@H](CC(C)C)C(=O)NC(C)(C)C(=O)N[C@@H](Cc1ccc(O)cc1)C(N)=O) [compound 37] : 48
